pIC50 values, listed per item
assayed_system: c-Myc/Max/Ebox DNA (Homo sapiens, UniProt P01106)
Construct: his6 (cleaved yes)
Sequence (P01106 whole entry): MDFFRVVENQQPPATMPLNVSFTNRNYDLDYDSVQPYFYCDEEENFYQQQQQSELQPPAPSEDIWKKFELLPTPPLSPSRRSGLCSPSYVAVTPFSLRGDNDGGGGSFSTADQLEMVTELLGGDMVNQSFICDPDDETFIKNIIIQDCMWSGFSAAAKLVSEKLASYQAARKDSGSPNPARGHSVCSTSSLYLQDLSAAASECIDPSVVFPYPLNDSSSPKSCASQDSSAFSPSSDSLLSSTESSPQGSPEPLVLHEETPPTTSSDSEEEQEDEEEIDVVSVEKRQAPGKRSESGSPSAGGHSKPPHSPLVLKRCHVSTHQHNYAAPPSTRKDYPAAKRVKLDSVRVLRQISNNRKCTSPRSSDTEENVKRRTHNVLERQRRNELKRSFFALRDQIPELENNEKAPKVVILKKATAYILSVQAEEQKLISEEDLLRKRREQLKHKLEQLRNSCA
test: c-Myc/Max/Ebox DNA AlphaScreen Assay
Assay type: binding
condition_summary: Table 2, compounds of FIG. 1; calculated IC50 class
pIC50: −log10 of the molar value.

CCC(C)N(C)CCC(=O)Nc1sc2c(c1-c1nc3ccccc3s1)CCN(C(C)C)C2 (stereo not shown) [Compound 122]    > 6.52

What measured pIC50 goes with COCCNCCC(=O)Nc1sc2c(c1-c1nc3ccc(-c4cc[nH]n4)cc3s1)CCNC2 ?
> 6.52

Requested field: pIC50. Item: CC(C)NCCC(=O)Nc1sc2c(c1-c1nc3ccc(C4=CCNCC4)cc3s1)CCNC2
> 6.52

pIC50 for CC(C)NCCC(=O)Nc1sc2c(c1-c1nc3c(-c4ccncc4)cccc3s1)CCNC2 ?
> 6.52
